Biological target: Scavenger receptor class B member 1 (Mus musculus)
Test: mouse SR-BI DiI-HDL uptake blockers – ldlA[mSR-BI] cells, fluorescence, single point, primary screen (AID 488896)
Settings: ldlA[mSR-BI] CHO cells, 3 h, at 12.5 µM
The whole screen tested about 320,000 compounds, of which about 3,100 (0.97%) were called active.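 Rule for the calls: active = mean replicate inhibition of at least 70% and a set share of replicates each scoring 70 or more; inconclusive = meets just one of the two criteria; inactive = fails both criteria.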 The list comes from a sample in which actives are over-represented; it also holds close analogues and randomly drawn compounds.
Please reply with one of these outcomes: y for active, n for inactive

# count of solved cases: 3
Cc1ccccc1N/N=C/c1ccc(N2CCOCC2)cc1 ... n
COc1ccc(-c2nnn(CC(=O)N(CCO)C(C(=O)NC3CCCC3)c3ccc(F)cc3)n2)cc1 (configuration not stated) ... n
CCCCCCC(=O)Nc1nc(C)c(-c2csc(Nc3cccc(OC)c3)n2)s1 ... y

[Q] Field: outcome | Entry: O=C(Nc1cccc(S(=O)(=O)Nc2ccc(Cl)cc2)c1)c1ccc2c(c1)OCCO2
[A] y

[Q] Field: outcome | Entry: COc1ccc(Cl)cc1NC(=O)c1oc(C)nc1C
[A] n

[Q] Field: outcome | Entry: Cc1ccc(OC(=O)CCC(=O)Nc2ccc(Br)cc2)cc1
[A] n

[Q] Field: outcome | Entry: CCN(CC)c1ccc(C(=O)N/N=C/c2ccc(N3CCOCC3)cc2)cc1
[A] n

[Q] Field: outcome | Entry: NC(=O)C1(Nc2ccc(-c3ccccc3)cc2)CCCC1
[A] n

[Q] Field: outcome | Entry: Nc1nc(-c2ccccc2)cc(-c2ccccc2)n1
[A] n

[Q] Field: outcome | Entry: COc1cccc(N(CC(=O)NC2CCCC2)C(=O)CCCC(=O)Nc2ccccn2)c1
[A] n

[Q] Field: outcome | Entry: N#CC(Cc1cc2ccccc2n1S(=O)(=O)c1ccccc1)OCc1ccccc1 (configuration not stated)
[A] n

[Q] Field: outcome | Entry: CCCCN1C(=O)/C(=C2/C=CC=CN2C)SC1=S
[A] n
